# System Under Test: G protein-coupled receptor (Human betaherpesvirus 5) (UniProt Q9IP65)
# Sequence (Q9IP65 as listed by the source): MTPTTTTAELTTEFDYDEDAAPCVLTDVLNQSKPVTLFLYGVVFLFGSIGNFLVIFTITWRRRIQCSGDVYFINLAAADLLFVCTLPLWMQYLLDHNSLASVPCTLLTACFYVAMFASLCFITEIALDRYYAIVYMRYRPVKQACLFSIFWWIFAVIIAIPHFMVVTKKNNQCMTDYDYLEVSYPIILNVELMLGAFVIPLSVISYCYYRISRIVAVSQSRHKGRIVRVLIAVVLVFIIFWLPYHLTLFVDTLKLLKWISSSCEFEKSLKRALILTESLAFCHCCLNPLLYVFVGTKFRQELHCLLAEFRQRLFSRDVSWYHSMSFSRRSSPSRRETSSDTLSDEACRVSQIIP
# Protocol Description: Allosteric modulatory activity at FLAG-tagged human cytomegalovirus US28 receptor delta300 mutant expressed in HEK293T cells by PathDetectElk1 assay relative to basal level
# Type: cell-based
# Measurement Setup: HEK-293T
Would you kindly list Efficacy for each of these compounds?

Query: Please state recorded Efficacy (tested on G protein-coupled receptor (Human betaherpesvirus 5) (UniProt Q9IP65)) of CSc1ccc2c(c1)C(N1CCN(C)CC1)Cc1ccccc1S2 (stereo unspecified) [METITEPINE]
Response: 110%

Query: Please state recorded Efficacy (tested on G protein-coupled receptor (Human betaherpesvirus 5) (UniProt Q9IP65)) of CCCCCCCCCC(=O)N(CCN(C)C)CC1(C)Cc2ccccc2C(=O)N1 (stereo unspecified)
Response: > 180%

Query: Please state recorded Efficacy (tested on G protein-coupled receptor (Human betaherpesvirus 5) (UniProt Q9IP65)) of CC1(CO)Cc2ccccc2C(=O)N1c1ccccc1 (stereo unspecified)
Response: 27%

Query: Please state recorded Efficacy (tested on G protein-coupled receptor (Human betaherpesvirus 5) (UniProt Q9IP65)) of N#CC(CCCN1CCC(O)(c2ccc(Cl)cc2)CC1)(c1ccccc1)c1ccccc1 [BERLEX COMPOUND]
Response: > 180%

Query: Please state recorded Efficacy (tested on G protein-coupled receptor (Human betaherpesvirus 5) (UniProt Q9IP65)) of CC1(COC(=O)Cc2ccccc2)Cc2ccccc2CN1C(=O)Cc1ccccc1 (stereo unspecified)
Response: -29%

Query: Please state recorded Efficacy (tested on G protein-coupled receptor (Human betaherpesvirus 5) (UniProt Q9IP65)) of CC1(CCO)Cc2ccccc2C(=O)N1c1ccccc1 (stereo unspecified)
Response: -21%
